The measured values listed here are drawn from the RNAGym collection of RNA variant scans (doi:10.1126/science.aae0568).

B1: tRNA (parent)
chain: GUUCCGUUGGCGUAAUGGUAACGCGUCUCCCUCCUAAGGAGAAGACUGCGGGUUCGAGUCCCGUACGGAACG

variants of: B1; test: yeast fitness relative to wild type (ratio to wild type); higher = fitter; tRNA-Arg(CCU), competitive growth, 37 C, YPD
This sample holds only a part of the variants without activity.
measured-parameter: yeast fitness

Which yeast fitness value is on record for U2G G9C A20G A42C C46G C49U C62A A69C ?
≤ 0.5

Which yeast fitness value is on record for C4A U8A G12C U19C C30U ?
≤ 0.5

Which yeast fitness value is on record for U2A C4G G41A C55A ?
≤ 0.5

Which yeast fitness value is on record for C4U U19C A36G G39A G67A ?
≤ 0.5

Which yeast fitness value is on record for U2A C4A G12A C33U G39A U64A A70C ?
≤ 0.5

Which yeast fitness value is on record for A15U A40G G52C C62G ?
≤ 0.5

Which yeast fitness value is on record for C4A G9A C22A C27G U54A ?
≤ 0.5

Which yeast fitness value is on record for A14C A21U A42C G58C ?
≤ 0.5

Which yeast fitness value is on record for C4G U7A C22U ?
≤ 0.5

Which yeast fitness value is on record for C11U A45G G52C ?
≤ 0.5

Which yeast fitness value is on record for U26C C30U C46A U47G G50A ?
≤ 0.5

Which yeast fitness value is on record for C24U C30U ?
0.744

Which yeast fitness value is on record for G10C G58C G67A ?
≤ 0.5

Which yeast fitness value is on record for C27U U28C C49U U54A A57C U59C ?
0.706

Which yeast fitness value is on record for C5A A36G C66U ?
0.655

Which yeast fitness value is on record for U16A A43G A45C ?
≤ 0.5

Which yeast fitness value is on record for C31U G44C U64C ?
0.559

Which yeast fitness value is on record for C11A A40C ?
0.708

Which yeast fitness value is on record for U26C A45G A69U ?
0.647

Which yeast fitness value is on record for C31A C33G G51C C60G ?
≤ 0.5

Which yeast fitness value is on record for A15C A43G C46A G68A ?
≤ 0.5

Which yeast fitness value is on record for A37U A42G A45U G67C ?
≤ 0.5
